target-or-system: PI3Kα (p110/p85) kinase (wild type, "WT") (Homo sapiens, UniProt P42336)
Sequence (P42336 whole entry): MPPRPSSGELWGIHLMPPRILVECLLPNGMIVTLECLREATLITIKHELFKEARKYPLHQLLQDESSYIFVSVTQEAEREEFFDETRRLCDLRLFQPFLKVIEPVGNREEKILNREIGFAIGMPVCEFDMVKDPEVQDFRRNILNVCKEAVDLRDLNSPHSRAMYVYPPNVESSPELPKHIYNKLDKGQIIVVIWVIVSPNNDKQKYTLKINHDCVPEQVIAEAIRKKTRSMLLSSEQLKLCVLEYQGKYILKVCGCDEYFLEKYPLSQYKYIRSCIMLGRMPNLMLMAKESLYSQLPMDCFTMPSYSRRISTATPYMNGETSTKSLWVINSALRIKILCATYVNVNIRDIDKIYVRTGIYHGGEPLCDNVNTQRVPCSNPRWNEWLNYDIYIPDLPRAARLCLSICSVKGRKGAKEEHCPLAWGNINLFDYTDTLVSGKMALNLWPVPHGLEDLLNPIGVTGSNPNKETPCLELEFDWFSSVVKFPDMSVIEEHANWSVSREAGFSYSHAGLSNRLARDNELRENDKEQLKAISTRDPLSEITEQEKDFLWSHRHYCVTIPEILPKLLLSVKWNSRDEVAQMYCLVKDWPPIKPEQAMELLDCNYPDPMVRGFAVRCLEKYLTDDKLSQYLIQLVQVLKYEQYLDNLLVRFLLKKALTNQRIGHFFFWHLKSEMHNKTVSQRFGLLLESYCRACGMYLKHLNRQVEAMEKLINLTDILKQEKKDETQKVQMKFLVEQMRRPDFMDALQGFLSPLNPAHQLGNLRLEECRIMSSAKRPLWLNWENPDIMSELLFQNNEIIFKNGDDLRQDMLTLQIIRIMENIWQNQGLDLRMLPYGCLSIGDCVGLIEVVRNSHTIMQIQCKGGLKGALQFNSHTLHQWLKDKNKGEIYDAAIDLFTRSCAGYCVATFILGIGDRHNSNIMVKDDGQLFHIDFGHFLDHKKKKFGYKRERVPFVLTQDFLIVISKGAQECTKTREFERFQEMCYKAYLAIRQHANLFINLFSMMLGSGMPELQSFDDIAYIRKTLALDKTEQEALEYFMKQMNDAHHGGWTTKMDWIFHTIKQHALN
Sequence (P27986 whole entry partner): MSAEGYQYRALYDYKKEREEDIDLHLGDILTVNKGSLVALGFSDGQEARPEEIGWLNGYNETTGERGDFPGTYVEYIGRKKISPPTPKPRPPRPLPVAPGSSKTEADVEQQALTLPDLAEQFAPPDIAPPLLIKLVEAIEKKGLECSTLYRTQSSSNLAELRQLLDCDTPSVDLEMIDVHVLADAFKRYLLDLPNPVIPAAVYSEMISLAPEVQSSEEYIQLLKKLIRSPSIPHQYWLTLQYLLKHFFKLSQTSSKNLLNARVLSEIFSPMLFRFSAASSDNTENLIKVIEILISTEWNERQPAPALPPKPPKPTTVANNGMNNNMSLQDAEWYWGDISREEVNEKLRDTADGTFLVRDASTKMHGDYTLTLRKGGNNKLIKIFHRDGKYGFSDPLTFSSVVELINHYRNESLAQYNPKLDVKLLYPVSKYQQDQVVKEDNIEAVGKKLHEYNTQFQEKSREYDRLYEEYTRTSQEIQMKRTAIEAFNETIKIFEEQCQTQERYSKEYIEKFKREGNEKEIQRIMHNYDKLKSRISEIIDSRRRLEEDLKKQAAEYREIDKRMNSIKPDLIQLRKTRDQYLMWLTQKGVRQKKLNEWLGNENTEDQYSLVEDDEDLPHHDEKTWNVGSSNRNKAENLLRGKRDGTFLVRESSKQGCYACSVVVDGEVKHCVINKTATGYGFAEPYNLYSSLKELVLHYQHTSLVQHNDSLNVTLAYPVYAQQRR
assay-method-text: PI3Kα (p110/p85) kinase ADP-Glo Assay
assay-setup: 25 uM ATP
parameter-measured: IC50 (µM)

a. COC1(c2ccc(-c3cc4c(C(C)Nc5ccccc5C(=O)O)cc(C)cc4c(=O)n3C)cc2)CCOCC1 (stereo not shown)
b. CC#Cc1cc2c(C(C)Nc3ccccc3C(=O)O)cc(C)cc2c(=O)n1C (stereo not shown)
c. Cc1cc(C(C)Nc2ccccc2C(=O)O)c2cc(-c3ccc(F)cc3)n(C)c(=O)c2c1 (stereo not shown)
Query string: Parameters: sort_field (IC50), sort_dir (desc). Provide the labels, sequenced as the question asks.
Result string: b, a, c
(b: 60.2 µM, a: 13.1 µM, c: 5.96 µM)

---

System: WT cell line SK-BR-3
assay-method-text: Phospho-AKT (Ser473) Inhibition Assay (HTRF), SK-BR-3
Assay type: cell-based
assay-setup: Homo sapiens; SK-BR-3, 1 hour treatment; read-out: p-AKT Inhibition assay (S473) IC50 SK-BR-3
parameter-measured: IC50 (µM)

# molecule, target-or-system, IC50 / µM
measured = [
    ("Cc1cc(C(C)Nc2ccccc2C(=O)O)c2cc(-c3ccc(N4CCCC4)cc3)n(C)c(=O)c2c1 (centres unmarked)", "WT cell line SK-BR-3", 3.12),
    ("Cc1cc(C(C)Nc2ccccc2C(=O)O)c2cc(-c3ccccc3C)n(C)c(=O)c2c1 (centres unmarked)", "WT cell line SK-BR-3", 2.85),
]

P. Cc1cc([C@H](C)Nc2ccccc2C(=O)O)c2cc(-c3ccc(-c4cnn(C)c4)cc3)n(C)c(=O)c2c1
Q. Cc1cc(C(C)Nc2ccccc2C(=O)O)c2cc(-c3cnn(C)c3)n(C)c(=O)c2c1 (centres unmarked)
Query string: Endpoint returns whichever of P and Q has the numerically higher IC50. Indicate your choice by writing its label.
Result string: Q
(Q: 4.73 µM, P: 3.23 µM)

---

System: WT cell line SK-BR-3
assay-method-text: Phospho-AKT (Ser473) Inhibition Assay (HTRF), SK-BR-3
Type: cell-based
assay-setup: Homo sapiens; SK-BR-3, 1 hour treatment; read-out: p-AKT Inhibition assay (S473) IC50 SK-BR-3
pIC50: −log10 of the molar value.
parameter-measured: pIC50

Solved entries (count: 4):
# molecule, target-or-system, result
rows = [
    ("Cc1cc(C(C)Nc2ccccc2C(=O)O)c2cc(-c3ccc4nn(C)cc4n3)n(C)c(=O)c2c1 (stereo not shown)", "WT cell line SK-BR-3", 5.21),
    ("Cc1cc(C(C)Nc2c(C(=O)O)sc3ccccc23)c2cc(-c3ccccc3)n(C)c(=O)c2c1 (stereo not shown)", "WT cell line SK-BR-3", 5.42),
    ("Cc1cc(C(C)Nc2ccccc2C(=O)O)c2cc(C3=Cc4ccccc4CC3)n(C)c(=O)c2c1 (stereo not shown)", "WT cell line SK-BR-3", 5.55),
    ("Cc1cc(C(C)Nc2ccccc2C(=O)O)c2cc(C3=CCN(c4ccccc4)CC3)n(C)c(=O)c2c1 (stereo not shown)", "WT cell line SK-BR-3", 5.30),
]

I. Cc1cc(C(C)Nc2ccccc2C(=O)O)c2cc(-c3ccc(C(C)(C)O)cc3)n(C)c(=O)c2c1 (stereo not shown)
II. Cc1cc(C(C)Nc2ccccc2C(=O)O)c2cc(-c3ccccc3F)n(C)c(=O)c2c1 (stereo not shown)
Query string: Which of the two items, I and II , has the greater recorded pIC50? Respond with the label that goes with your answer.
Result string: II
(II: 5.49, I: 5.19)

1. CC(Nc1ccccc1C(=O)O)c1cccc2c(=O)n(C)c(C#Cc3ccccc3)cc12 (stereo not shown)
2. Cc1cc(C(C)Nc2ccccc2C(=O)O)c2cc(-c3cccc(F)c3)n(C)c(=O)c2c1 (stereo not shown)
Query string: Please indicate which has the smaller reported pIC50: 1 , or 2 . Please respond with the label that marks your chosen entry.
Result string: 1
